experiment_description: DRUGMATRIX: GABAA, Flunitrazepam, Central radioligand binding (ligand: [3H] Flunitrazepam)
Format: cell membranes, Rattus norvegicus, Wistar, Brain, Membrane
run_conditions: Not Active = under 50% inhibition at 10 µM

molecule | IC50
CN1CCC(=C2c3ccccc3CC(=O)c3sccc32)CC1 | Not Active
CN(C)C(=O)Oc1cccc([N+](C)(C)C)c1.[Br-] [NEOSTIGMINE BROMIDE] | Not Active
CCn1cc(C(=O)O)c(=O)c2cc(F)c(N3CCNC(C)C3)c(F)c21 (stereo not drawn) | Not Active
O=C(O)P(=O)(O)O | Not Active
Cc1ccc(C)c(OCCCC(C)(C)C(=O)O)c1 | Not Active
CCOc1nc2cccc(C(=O)O)c2n1Cc1ccc(-c2ccccc2-c2nnn[nH]2)cc1 | Not Active
NS(=O)(=O)c1cc(C2(O)NC(=O)c3ccccc32)ccc1Cl (stereo not drawn) | Not Active
COC(=O)Nc1nc2cc(C(=O)c3ccc(F)cc3)ccc2[nH]1 | Not Active
CC(=N)S [THIOACETAMIDE] | Not Active
COc1cc(OC)c(C(=O)CCCN2CCCC2)c(OC)c1 | Not Active
CC(C)C[C@H]1C(=O)N2CCC[C@H]2[C@]2(O)O[C@](NC(=O)[C@@H]3C=C4c5cccc6[nH]cc(c56)C[C@H]4N(C)C3)(C(C)C)C(=O)N12 | Not Active
CN1CCN(CCCN2c3ccccc3Sc3ccc(C(F)(F)F)cc32)CC1 | Not Active
CO/N=C(\C(=O)N[C@@H]1C(=O)N2C(C(=O)O)=C(COC(C)=O)CS[C@H]12)c1csc(N)n1 | Not Active
CC(=O)OCC(=O)[C@@]12OC(C)(C)O[C@@H]1C[C@H]1[C@@H]3C[C@H](F)C4=CC(=O)C=C[C@]4(C)[C@@]3(F)[C@@H](O)C[C@@]12C [FLUOCINONIDE] | Not Active
C[C@]12CC[C@H]3[C@@H](CCC4=CC(=O)CC[C@@H]43)[C@@H]1CC[C@@H]2O | Not Active
O=C(O)COc1ccc(C(=O)c2cccs2)c(Cl)c1Cl | Not Active
CC(C)NCC(O)c1ccccc1Cl (stereo not drawn) | Not Active
CC[C@H]1[C@@H]2C[C@H]3[C@@H]4N(C)c5ccccc5[C@]45C[C@@H]([C@@H]2[C@H]5O)N3[C@@H]1O | Not Active
CCCNC(=O)NS(=O)(=O)c1ccc(Cl)cc1 [CHLORPROPAMIDE] | Not Active
CCC1=C(C)CN(C(=O)NCCc2ccc(S(=O)(=O)NC(=O)N[C@H]3CC[C@H](C)CC3)cc2)C1=O [GLIMEPIRIDE] | Not Active
CN(C)CCC=C1c2ccccc2CCc2ccccc21 | Not Active
Cn1c(=O)c2c(ncn2C)n(C)c1=O | Not Active
CCCCC1=NC2(CCCC2)C(=O)N1Cc1ccc(-c2ccccc2-c2nnn[nH]2)cc1 | Not Active
CC(=O)OC[C@H]1O[C@@H](n2ncc(=O)[nH]c2=O)[C@H](OC(C)=O)[C@@H]1OC(C)=O | Not Active
CC(=O)Oc1ccccc1C(=O)O | Not Active
C[C@]12CC[C@@H]3c4ccc(O)cc4CC[C@H]3[C@@H]1C[C@@H](O)[C@@H]2O | Not Active
CC(C)c1c(C(=O)Nc2ccccc2)c(-c2ccccc2)c(-c2ccc(F)cc2)n1CC[C@@H](O)C[C@@H](O)CC(=O)O | Not Active
CN1C[C@@H]2C[C@H]1CN2c1cc2c(cc1F)c(=O)c(C(=O)O)cn2C1CC1 | Not Active
NNCCc1ccccc1 | Not Active
Cc1cc(O)cc(C)c1Cl | Not Active
COC(=O)[C@H]1[C@H]2C[C@@H]3c4[nH]c5cc(OC)ccc5c4CCN3C[C@H]2C[C@@H](OC(=O)c2cc(OC)c(OC)c(OC)c2)[C@@H]1OC | Not Active
C[C@H]1COc2c(N3CCN(C)CC3)c(F)cc3c(=O)c(C(=O)O)cn1c23.C[C@H]1COc2c(N3CCN(C)CC3)c(F)cc3c(=O)c(C(=O)O)cn1c23.O | Not Active
C[N+](C)(C)CCOC(=O)CCC(=O)OCC[N+](C)(C)C.[Cl-].[Cl-] [SUCCINYLCHOLINE CHLORIDE] | Not Active

The measurements presented in this section are drawn from ChEMBL document CHEMBL1909046.
